# Tested on: ATP;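 further: ATP exposure 15 min at 22 °C before imaging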
# assay.notes: switch fluorescence ratio, 500 uM ATP over buffer (Cy3 cluster intensity, sum of 5 cycles each) (fold (ratio)); higher = stronger signal-on switching upon ATP binding; sequences stand for … in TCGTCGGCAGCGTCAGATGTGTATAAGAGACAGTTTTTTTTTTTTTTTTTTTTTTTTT…TC
# test.context: aptamer strand: ATP DNA aptamer (quencher-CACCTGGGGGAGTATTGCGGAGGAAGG + anchor), 100 nM annealed; ATP concentration: 500 uM
attribute.measured: switch fluorescence ratio

GTGGGGGGTC
1.01
ATTTCAGTAG
1.02
GTGGACTAGT
1.02
TTATGAGTCG
0.979
GATATTGTTT
0.988
TCAAGTTTG
1.01
AACGAATAAA
0.994
TTTGGCAAGG
1.01
TGCGTCAACT
1.01
TGTTCGAGGG
1.02
TCAGTGACGG
1.02
GGAGTTTAGC
1.02
GGGTTTGTTT
1.02
ATTTGTGGGA
1
GGGGGAATCA
0.975
GGGTTTTCGG
0.987

###

# Test system: ATP;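 further: ATP exposure 15 min at 22 °C before imaging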
# assay.notes: switch fluorescence ratio, 500 uM ATP over buffer (Cy3 cluster intensity, sum of 5 cycles each) (fold (ratio)); higher = stronger signal-on switching upon ATP binding; sequences stand for … in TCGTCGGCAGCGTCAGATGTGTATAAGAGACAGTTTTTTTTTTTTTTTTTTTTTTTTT…TC
# test.context: aptamer strand: ATP DNA aptamer (quencher-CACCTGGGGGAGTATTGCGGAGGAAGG + anchor), 100 nM annealed; ATP concentration: 500 uM
attribute.measured: switch fluorescence ratio

GGGCTTGAAG
1.01
GGTGATGTGG
0.986
GGTCCTAATA
1
ACATTGTTAT
1.07
ATTTAGGATT
1.01
CGAGTACTGG
1.03
CGCACCATGC
2.41
GATGGAGGTG
0.997
GCGATTGAGC
0.981
TGCTCTTAGT
1.04
AATGGTGTAG
1
AATAACTAGG
1
GGCCATTTTT
1.01
AGAGGGTAGT
1.01

###

# Test system: ATP;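 further: ATP exposure 15 min at 22 °C before imaging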
# assay.notes: switch fluorescence ratio, 500 uM ATP over buffer (Cy3 cluster intensity, sum of 5 cycles each) (fold (ratio)); higher = stronger signal-on switching upon ATP binding; sequences stand for … in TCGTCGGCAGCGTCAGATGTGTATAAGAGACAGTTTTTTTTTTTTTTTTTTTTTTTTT…TC
# test.context: aptamer strand: ATP DNA aptamer (quencher-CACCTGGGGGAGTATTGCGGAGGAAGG + anchor), 100 nM annealed; ATP concentration: 500 uM
This listing pairs sequences with measured switch fluorescence ratio.
attribute.measured: switch fluorescence ratio

GGAGGATTTA
0.984
GGGGCCGAGA
0.987
GCATGGTTGG
0.976
TAAAGGCTTG
0.976
TTATGCTTCT
1.01
GCTTGGCTGT
0.999
AGCTGTAGTA
1.01
TTAGGGCTTT
1.01

###

# Test system: ATP;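 further: ATP exposure 15 min at 22 °C before imaging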
# assay.notes: switch fluorescence ratio, 500 uM ATP over buffer (Cy3 cluster intensity, sum of 5 cycles each) (fold (ratio)); higher = stronger signal-on switching upon ATP binding; sequences stand for … in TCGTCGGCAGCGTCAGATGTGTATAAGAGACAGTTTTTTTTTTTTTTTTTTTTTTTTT…TC
# test.context: aptamer strand: ATP DNA aptamer (quencher-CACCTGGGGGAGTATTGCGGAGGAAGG + anchor), 100 nM annealed; ATP concentration: 500 uM
attribute.measured: switch fluorescence ratio

GAGTTATATT
0.985
GGGAATAGGG
1.01
ATTTTCGGAT
0.975
GCATGGCACC
1.01
TAGGGTGCGT
1
CTGTAGGGTT
1.01
GATGTTAGTA
0.973
TTTTTTGGCA
0.982
TGAAATGAAT
0.994
ACTTAGGTAA
1.01
GTTTCAGGTA
1.02
AAGTCGGGGG
1
AGGGGTGTGG
1.01
GGGTTTAGCG
1.01
CGGGTGGCTG
0.995
ACATTATTTT
1.02
GTTTTGGGAA
1.02
TGGTTTTTTA
0.993
TAGGAGGAGG
0.984
TAGGTATATC
0.984
TTATTTTCGG
0.994
GAGATCGTCG
0.993
ATCTGGGTAG
1.01
AAGTAGATGG
0.991
GAAAAATGAC
0.999
AGAACCTGGG
0.981
TAGTCTTTAG
1.01
CCGTTGAAGG
1.01
CGTGTGTGGT
0.994
TGGCTTATTT
0.988
AAGTGGTGCA
0.974
AGAAGTTGGG
0.993
AATTTCTGTG
0.978
GTGGATTTGG
1.02
GCGTTCAGGT
1.01
